- Assay Info: in vitro
- Experimental Parameters: human, cells or culture medium
Peptide text beside a SMILES is read from it.
Quantity Name: remaining at 2 h

Which measured remaining at 2 h value corresponds to CC(=O)N[C@H](C(=O)N[C@@H](Cc1c[nH]c2ccccc12)C(=O)N[C@@H](CC(N)=O)C(=O)N1CCC[C@H]1C(=O)N[C@@H](C)C(=O)N[C@H](C(=O)NCC(=O)N[C@@H](CCCCN)C(=O)N[C@@H](Cc1c[nH]c2ccccc12)C(=O)N[C@H](C(N)=O)[C@@H](C)O)[C@@H](C)O)[C@@H](C)O [ΔHP7] (Ac-TWNPATGKWT-NH2; N-terminus and C-terminus assumed) ?
~19%

Which measured remaining at 2 h value corresponds to C[C@H](NC(=O)[C@@H]1CCCN1C(=O)[C@H](CC(N)=O)NC(=O)[C@H](Cc1c[nH]c2ccccc12)NC(=O)[C@@H](NC(=O)[C@@H](N)CCCCN)[C@@H](C)O)C(=O)N[C@H](C(=O)NCC(=O)N[C@@H](CCCCN)C(=O)N[C@@H](Cc1c[nH]c2ccccc12)C(=O)N[C@H](C(=O)N[C@@H](CCC(=O)O)C(=O)O)[C@@H](C)O)[C@@H](C)O [HP7, reference compound] (H-KTWNPATGKWTE-OH; N-terminus and C-terminus assumed) ?
~0%
